Listing: composite z-score of selected compounds
tested on: Neuregulin-1 EGF-like domain; test: small molecules binding NRG1 EGF domain – biochemical, small-molecule microarray, 635 nm fluorescence, primary screen (AID 1081); settings: higher = more signal;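 also: binding of the protein to compounds printed on small-molecule microarray slides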
quantity: composite z-score

COCCOC(=O)N1C(=O)[C@@]2(c3cc(C#CC4=CCCCC4)ccc31)[C@H](c1ccccc1OCCO)N1[C@H](c3ccccc3)[C@H](c3ccccc3)OC(=O)[C@H]1[C@@H]2C(=O)N1CCN(c2ncccn2)CC1: 1.13
CCOC(=O)C1=CC[C@@H](c2ccccc2F)N(S(=O)(=O)c2ccc(C)cc2)[C@H]1c1ccccc1: 0.677
CCOC(=O)C[C@H]1[C@H](OC(=O)Cc2ccc3c(c2)OCO3)[C@@H](NC(=O)C2CCCCC2)c2cc(OCCCO)ccc2N1C(=O)c1ccccc1: 0.65
CCOC(=O)C[C@H]1[C@H](OC(=O)Cc2ccc3c(c2)OCO3)[C@@H](NC(=O)c2ccc3ccccc3n2)c2cc(OCCCO)ccc2N1C(=O)c1ccccc1: -0.111
CC[C@@H]1C=C(C(=O)O)[C@H](c2ccccc2)N1S(=O)(=O)c1ccc(C)cc1: 1.38
O=C1O[C@H](c2ccccc2)[C@H](c2ccccc2)N2[C@H]1[C@@H](C(=O)O)[C@]1(C(=O)Nc3ccc(C#CCCO)cc31)[C@H]2c1ccccc1OCCO: 1.23

* * *

Reported z-score by item:
assay: growth modulation of vineyard yeast isolate – strain RM11-1a, OD600, basal, 24 h, primary screen (AID 1177);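 also: cultures grown under basal conditions with no added stressor; test concentration not given here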; conditions: S. cerevisiae RM11-1a growth, OD600, 24 h; higher = more signal, called active from +8 up or from −8 down
quantity: z-score

CCCCCCc1nc(Cc2cc(OC)c(OC)c(OC)c2)cc2c1[Si](C(C)C)(C(C)C)OC2: -0.0979
O=C1C2C=CC(C(O)C3CC=CCC3)N(Nc3ccccc3)C2C(=O)N1c1ccccc1 (configuration not stated): -0.197
CC(C)N1C(=O)C[C@@](C(=O)O)(c2ccc([N+](=O)[O-])cc2)[C@H]1c1ccc(CO)cc1: 0.196
[N-]=[N+]=NCc1ccccc1C[C@@]1(C(N)=O)N=C(c2ccc(OCCCO)cc2)O[C@@H]1c1ccccc1: 0.115
COC(=O)C(CC#Cc1ccc2c(c1)[C@]1(C(=O)N2)[C@H](c2ccc(O)cc2)N2[C@H](c3ccccc3)[C@H](c3ccccc3)OC(=O)[C@H]2[C@@H]1C(=O)NC[C@H](O)c1ccccc1)C(=O)OC: 0.379
C=CCNC(=O)[C@@H]1[C@H]2C(=O)O[C@H](c3ccccc3)[C@H](c3ccccc3)N2[C@H](c2ccc(O)cc2)[C@@]12C(=O)N(C(=O)OCCOC)c1ccc(C#CC3=CCCCC3)cc12: 0.891
[N-]=[N+]=Nc1ccccc1C[C@@]1(C(=O)NCCN2CCOCC2)N=C(c2ccc(OCCCO)cc2)O[C@@H]1c1ccccc1N=[N+]=[N-]: 0.26

* * *

assay: probe aLAP1 signal on lysate-treated microarray – cell lysate, small-molecule microarray, COS7 lysate, primary screen (AID 1124); conditions: probe aLAP1, fluorescence, higher = more signal;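 also: lysate comes from COS7 cells expressing LAP1 and is applied at 0.3 µg/mL; score merges spot fluorescence near 667 nm with signal-to-noise over triplicate slides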
# maps each entry to its composite z-score
quantity: composite z-score

C=CCC(OC(C)=O)[C@@H]1[C@@H](N(Cc2ccc(-c3cccc(C(F)(F)F)c3)o2)C(=O)Cc2ccc(OC)cc2)c2cc(OCCCO)ccc2N1C(=O)c1ccc(-c2ccccc2)cc1 (stereo partly drawn): -0.155
O=C(O)[C@@H]1C[C@@H]2C(=O)N3CCC[C@H]3C(=O)N2[C@@H]1c1ccc(O)cc1: 0.619
C[C@@H]1NC(=O)[C@@H](Cc2ccccc2)NC(=O)[C@@]23C(=O)N[C@@H](Cc4ccccc4)C2[C@H](C)[C@@]2(C)O[C@H]2C3/C=C/C/C=C\CNC1=O (stereo partly drawn): 0.074
C=CCNC(=O)[C@@H]1[C@H]2C(=O)O[C@H](c3ccccc3)[C@H](c3ccccc3)N2[C@H](c2ccccc2OCCO)[C@@]12C(=O)Nc1ccc(C#CCC(C(=O)OC)C(=O)OC)cc12: 1.62
[N-]=[N+]=NCc1ccccc1[C@@H]1OC(c2ccc(OCCCO)cc2)=N[C@]1(CCS(=O)(=O)c1ccccc1)C(=O)O: 0.0649
[N-]=[N+]=NCc1ccccc1[C@H]1OC(c2ccc(OCCCO)cc2)=N[C@@]1(Cc1ccccc1N=[N+]=[N-])C(=O)NCC(O)CO (stereo partly drawn): 0.0939
COc1cc(C(O)C2C=CC3C(=O)N(C)C(=O)C3N2Nc2ccccc2)cc(OC)c1OC (stereo not drawn): 0.708
CO[C@H]1O[C@H](CO)[C@@H](OC(=O)Nc2ccccc2)[C@H](OC(=O)c2cc3ccccc3[nH]2)[C@H]1OC(=O)c1cc2ccccc2[nH]1: 0.94
CCCCCCCCCCC(O)C1C=CC2C(=O)N(c3ccccc3)C(=O)C2N1Nc1ccc(C#N)cc1 (stereo not drawn): 0.906
C=CCNC(=O)[C@H]1[C@@H]2C(=O)O[C@@H](c3ccccc3)[C@@H](c3ccccc3)N2[C@@H](c2ccccc2OCCO)[C@]12C(=O)N(C(=O)OCCOC)c1ccc(C#CC3(O)CCCCCC3)cc12: 1.05
CCCC=C(CCC)[C@@H](NS(=O)(=O)c1ccc(C(F)(F)F)cc1)c1ccccc1: -0.122
COC(=O)[C@@]1(Cc2ccc(OC)cc2)[C@H]2c3cc(C(=O)N4CCCC4)n(CCc4c[nH]c5ccc(OC)cc45)c3C[C@H]2CN1C(=O)c1ccccc1: 0.8
COc1cc(NN2C(C(O)c3ccco3)C=CC3C(=O)N(C)C(=O)C32)cc(OC)c1OC (stereo not drawn): -0.0901
C=C[C@@H](OC)[C@H](OC(=O)Nc1ccc(OC)cc1)c1ccc(O)c(F)c1: 0.117
C=C(/C(=C/C[C@H](OC(C)=O)c1ccc(CO)o1)c1cnc2ccccc2c1)C(C)C: 0.269
COC(=O)C(CC#Cc1ccc2c(c1)[C@]1(C(=O)N2)[C@H](c2ccc(O)cc2)N2[C@H](c3ccccc3)[C@H](c3ccccc3)OC(=O)[C@H]2[C@@H]1C(=O)NC[C@H](O)c1ccccc1)C(=O)OC: 1.2
Cc1ccc(S[C@]2(C(=O)NCC(F)(F)F)CC(=O)N(Cc3cc(C(F)(F)F)cc(C(F)(F)F)c3)[C@@H]2c2ccc(CO)cc2I)cc1: -0.0008
O=C1C2C=CC(C(O)C3CC=CCC3)N(Nc3ccccc3)C2C(=O)N1c1ccccc1 (stereo not drawn): 0.093
Cc1ccc(C(C)CC(O)C2C=CC3C(=O)N(c4ccccc4)C(=O)C3N2Nc2ccccc2)o1 (stereo not drawn): 0.412
CCOC(=O)C1=CC[C@@H](c2ccccc2)N(S(=O)(=O)c2ccc(C)cc2)[C@H]1c1ccccc1: -0.561
C=CCOC(=O)[C@@]1(Cc2ccccc2)C[C@H]2CO[C@H](c3ccc(OC)cc3)N2C1=O: 0.0469
C=CC[C@H](OC(=O)Nc1ccc(SC)cc1)c1ccc(O)c2ccccc12: 0.368
O=C1O[C@@H](c2ccccc2)[C@@H](c2ccccc2)N2[C@@H](c3ccc(O)cc3)[C@]3(C(=O)Nc4ccc(C#CCCO)cc43)[C@@H](C(=O)N3CCN(c4ncccn4)CC3)[C@H]12: -0.143
CCOC(=O)C1=C[C@@H](C(C)C)N(S(=O)(=O)c2ccc(C)cc2)[C@H]1c1ccc(C(F)(F)F)cc1: 0.327
COC(=O)C1=CC(CCCO)=CC(c2cccs2)N(C)C=C1C(=O)OC (stereo not drawn): -0.371
C=CCNC(=O)[C@@H]1[C@H]2C(=O)O[C@H](c3ccccc3)[C@H](c3ccccc3)N2[C@H](c2ccccc2OCCO)[C@@]12C(=O)N(C(=O)OCCOC)c1ccc(C#CC3(O)CCCCCC3)cc12: 0.618
COCCOC(=O)N1C(=O)[C@@]2(c3cc(C#CCNC(N)=O)ccc31)[C@H](C(N)=O)[C@H]1C(=O)O[C@H](c3ccccc3)[C@H](c3ccccc3)N1[C@@H]2c1ccccc1OCCO: 0.521
C=CC[C@@H](OC(=O)Nc1ccc(OC)cc1)c1ccc(O)c(F)c1: 0.738
